Tested on: 786-0 renal
ASSAY NAME: NCI-60 one-dose screen, 48 h
STATED CONDITIONS: 10 µM unless noted
This is part of a sample that, as a whole, favours compounds with a hit. Of some 83,000 tested, about 20% had one in any assay. Calls of active or inactive are those of the source. Rule for the calls: active = growth percent below 10; inactive = the rest.
Classes used: active, inactive

>  <COMPOUND>
O=c1c2c(=NCCN3CCCC3)cc3c(=O)n(CCCN4CCOCC4)c(=O)c4ccc(c(O)n1CCCN1CCOCC1)c2c4-3

>  <MEASURED ON>
786-0 renal

>  <CLASSIFICATION>
active

$$$$
>  <COMPOUND>
CC(=O)N(CC(O)CO)c1c(I)c(C(=O)NCCO)c(I)c(C(=O)NCC(O)CO)c1I (stereo not given)

>  <MEASURED ON>
786-0 renal

>  <CLASSIFICATION>
inactive

$$$$
>  <COMPOUND>
Cc1nc2cc(Nc3nc(Nc4ccc(F)cc4)nc(-c4ccc(Cl)cc4)n3)ccc2n1Cc1ccccc1

>  <MEASURED ON>
786-0 renal

>  <CLASSIFICATION>
inactive

$$$$
>  <COMPOUND>
Cn1c(=O)c2c(-c3ccccc3F)n(-c3ccc4c(c3)OCO4)cc2n(C)c1=O

>  <MEASURED ON>
786-0 renal

>  <CLASSIFICATION>
inactive

$$$$
>  <COMPOUND>
Cn1cc(C(=O)NCCC(=N)N)cc1NC(=O)CN=C(N)N

>  <MEASURED ON>
786-0 renal

>  <CLASSIFICATION>
inactive

$$$$
>  <COMPOUND>
CCOC(=O)c1c(Cl)c2c(n1Cc1ccc(OC)cc1)-c1oncc1CCC2

>  <MEASURED ON>
786-0 renal

>  <CLASSIFICATION>
inactive

$$$$
>  <COMPOUND>
c1ccc(-c2nc(N3CCOCC3)c3c4c(sc3n2)CCCCCC4)nc1

>  <MEASURED ON>
786-0 renal

>  <CLASSIFICATION>
inactive

$$$$
>  <COMPOUND>
CCCCC(O)Cn1ncc(C(=O)OCC)c1NC(=O)NCc1ccccc1C(F)(F)F (stereo not given)

>  <MEASURED ON>
786-0 renal

>  <CLASSIFICATION>
inactive

$$$$
>  <COMPOUND>
COc1cccc(-c2ccc3c(c2)C2CCN(Cc4ccccc4)C3C2)c1 (stereo not given)

>  <MEASURED ON>
786-0 renal

>  <CLASSIFICATION>
inactive

$$$$
>  <COMPOUND>
Cc1nc2cc(Nc3nc(N4CCOCC4)nc(N4CCN(C)CC4)n3)ccc2n1Cc1ccccc1

>  <MEASURED ON>
786-0 renal

>  <CLASSIFICATION>
inactive

$$$$

* * *

System: M14 melanoma
ASSAY NAME: NCI-60 one-dose screen, 48 h
STATED CONDITIONS: 10 µM unless noted
About 83,000 compounds went through this panel and 20% of them were active in at least one assay; those are over-represented in the sample as a whole. Activity calls are given as the source filed them. How the source made its calls: active means growth percent below 10; inactive means the rest.
Outcomes: T (active), F (inactive)

>  <COMPOUND>
O=C1/C(=C/c2ccc(Cl)cc2)N=C(c2ccccc2)N1CCc1cccs1

>  <CLASSIFICATION>
F

$$$$
>  <COMPOUND>
Cc1cc(Cl)c2c(Cl)ccc(Cl)c2n1

>  <CLASSIFICATION>
F

$$$$
>  <COMPOUND>
Cc1ccccc1-n1nnc(C(=O)Nc2nc(-c3ccccc3)c(-c3ccccc3)s2)c1C

>  <CLASSIFICATION>
F

$$$$
>  <COMPOUND>
CSc1ccc(OC(C)=O)cc1C

>  <CLASSIFICATION>
F

$$$$
>  <COMPOUND>
CC1SC(c2cccc(Oc3ccccc3)c2)N(CCc2cccs2)C1=O (stereo not drawn)

>  <CLASSIFICATION>
T

$$$$
>  <COMPOUND>
COc1ccccc1-n1c(SCc2cc(OC)c(OC)c(OC)c2)nc2ccc(Cl)cc2c1=O

>  <CLASSIFICATION>
F

$$$$
>  <COMPOUND>
CN1CCc2c(c3ccccc3c3ccccc23)C1

>  <CLASSIFICATION>
F

$$$$
>  <COMPOUND>
COc1cc(C2C3=C(COC3=O)N(CCO)c3cc4c(cc32)OCO4)cc(OC)c1O (stereo not drawn)

>  <CLASSIFICATION>
T

$$$$
>  <COMPOUND>
CCOC(=O)C1=C(C)N2C(=NC3=C(CCCC/C3=C\c3cc(OC)c(OC)c(OC)c3)C2c2cc(OC)c(OC)c(OC)c2)S1 (stereo not drawn)

>  <CLASSIFICATION>
F

$$$$
>  <COMPOUND>
NC(=O)c1cc(I)ccc1NC(=O)COc1ccccc1

>  <CLASSIFICATION>
T

$$$$
>  <COMPOUND>
COc1ccc(-c2csc3c2-n2cccc2C3=O)cc1O

>  <CLASSIFICATION>
T

$$$$
>  <COMPOUND>
COc1ccc(S(=O)(=O)ON=C2C=C(C)C(=O)C(C)=C2)cc1

>  <CLASSIFICATION>
F

$$$$
>  <COMPOUND>
COc1ccc(/C=C(\C#N)c2ccc(OC)cc2)cc1

>  <CLASSIFICATION>
F

$$$$
>  <COMPOUND>
N#Cc1ccc(C(F)(F)F)nc1N1CCC(C(=O)Nc2ccc(Cl)cc2)CC1

>  <CLASSIFICATION>
F

$$$$
>  <COMPOUND>
CCOC(=O)n1cc(C2=C(c3cn(C)c4ccccc34)COC2=O)c2ccccc21

>  <CLASSIFICATION>
F

$$$$
>  <COMPOUND>
COC(=O)C1C2CC3c4[nH]c5cc(OC)ccc5c4CCN3CC2CC(OC2CCCCO2)C1OC (stereo not drawn)

>  <CLASSIFICATION>
F

$$$$
>  <COMPOUND>
COc1cccc(C2CC(=O)Nc3cc4c(cc32)OCO4)c1OC (stereo not drawn)

>  <CLASSIFICATION>
F

$$$$
>  <COMPOUND>
Nc1nc(-c2ccnc(Cl)c2)nn1-c1nc2ccccc2s1

>  <CLASSIFICATION>
F

$$$$
>  <COMPOUND>
NC(=O)c1nc2c([nH]c1=O)CCCC2

>  <CLASSIFICATION>
F

$$$$
>  <COMPOUND>
COc1cccc(-c2ccc3c(c2)C2CCN(Cc4ccccc4)C3C2)c1 (stereo not drawn)

>  <CLASSIFICATION>
F

$$$$
>  <COMPOUND>
O=c1[nH]c(=S)c2c(n1CCCO)CCC2

>  <CLASSIFICATION>
F

$$$$
>  <COMPOUND>
Cc1cc(=O)[nH]n1-c1cc(Cl)ccc1N

>  <CLASSIFICATION>
F

$$$$
>  <COMPOUND>
O=S(=O)(Nc1ncccn1)c1ccc(Nc2ccc3nnc(-c4ccncc4)n3n2)cc1

>  <CLASSIFICATION>
F

$$$$

* * *

Test system: SNB-19 CNS
ASSAY NAME: NCI-60 one-dose screen, 48 h (100 = growth as untreated, 0 = no growth, -100 = all killed)
STATED CONDITIONS: 10 µM unless noted
About 83,000 compounds went through this panel and 20% of them were active in at least one assay; those are over-represented in the sample as a whole.

>  <COMPOUND>
COc1ccc(Nc2[nH]n(C3=Nc4ccccc4Sc4ccccc43)c(=O)c2C#N)cc1

>  <growth (%)>
73.5

$$$$
>  <COMPOUND>
COC(=O)[C@@H]1CCCN1C(=O)[C@@H]1CCCN1C(=O)[C@@H](Cc1c[nH]c2ccccc12)NC(=S)Nc1cc(C(F)(F)F)cc(C(F)(F)F)c1

>  <growth (%)>
69.3

$$$$
>  <COMPOUND>
CC1SC(c2cccc(Oc3ccccc3)c2)N(CCc2cccs2)C1=O (stereo unspecified)

>  <growth (%)>
11.9

$$$$
>  <COMPOUND>
O=C(c1ccccc1)C(Br)C(Br)c1cccc([N+](=O)[O-])c1 (stereo unspecified)

>  <growth (%)>
82.4

$$$$
>  <COMPOUND>
COc1ccc(OC)c2ncccc12

>  <growth (%)>
110

$$$$
>  <COMPOUND>
Cn1cc(C(=O)NCCC(=N)N)cc1NC(=O)CN=C(N)N

>  <growth (%)>
101

$$$$

* * *

Test system: TK-10 renal
ASSAY NAME: NCI-60 one-dose screen, 48 h (100 = growth as untreated, 0 = no growth, -100 = all killed)
STATED CONDITIONS: 10 µM unless noted
Compounds without any hit were thinned out: in the full panel of roughly 83,000, 20% have a hit. The source made the active and inactive calls. Rule for the calls: active = growth percent below 10; inactive = the rest.
Listed here: items and their measured growth.

>  <COMPOUND>
COc1c2c(c(OC)c3c1c(=O)c1ccccc1n3C)OCO2

>  <growth>
54.2% [100 µM] (inactive)

$$$$
>  <COMPOUND>
N#CC12COC3(CCCCC3C1(C#N)C#N)OC2=N (stereo not drawn)

>  <growth>
41.4% [100 µM] (inactive)

$$$$
>  <COMPOUND>
CCOC(=O)c1c(-c2cc(OC)c(OC)c(OC)c2)csc1N

>  <growth>
93.3% (inactive)

$$$$
